So I've got a bunch of molecules here, and I need their Vd values.
# measurement notes: Mouse PK studies after oral and IV dosing
# Assay type: in vivo
# conditions used: in vivo, iv, 1 mg/kg, IV, dose 1 mg/kg, read-out: IV VSS
One number for each entry, in L/kg.

Value sought for every listed molecule: Vd.
1. C[C@H]1CC2(CCN(c3ccc(C(=O)N4CCN(CC5CN(c6cc7c(cc6F)C(=O)N(C6CCC(=O)NC6=O)C7=O)C5)CC4)cc3)CC2)CN1c1ccc(C#N)c(Cl)c1 (stereo partly drawn)
2. C[C@H]1CC2(CCN(c3cnc(C(=O)N4CCN(CC5CN(c6cc7c(cc6F)C(=O)N(C6CCC(=O)NC6=O)C7=O)C5)CC4)cn3)CC2)CN1c1ccc(C#N)c(Cl)c1 (stereo partly drawn)
3. C[C@H]1CC2(CCN(c3ccc(C(=O)N4CCC(CN5CCN(c6ccc7c(c6)C(=O)N(C6CCC(=O)NC6=O)C7=O)CC5)CC4)cc3)CC2)CN1c1ccc(C#N)c(Cl)c1 (stereo partly drawn)

1. 3
2. 7.75
3. 1.7

====

# measurement notes: Mouse PK studies after oral and IV dosing
# Assay type: in vivo
# conditions used: in vivo, po, 3 mg/kg, PO, dose 3 mg/kg, read-out: PO T1/2 (converted)
property name: half-life (h)
Answers are plain numbers, in h.

compound	readout number
C[C@H]1CC2(CCN(c3cnc(C(=O)N4CCC(CN5CCN(c6ccc7c(c6)C(=O)N(C6CCC(=O)NC6=O)C7=O)CC5)CC4)cn3)CC2)CN1c1ccc(C#N)c(Cl)c1 (some centres unmarked) [Cpd. No. 492]	2.1

Batch: half-life for all items listed.
1. C[C@H]1CC2(CCN(c3ccc(C(=O)N4CCN(CC5CN(c6cc7c(cc6F)C(=O)N(C6CCC(=O)NC6=O)C7=O)C5)CC4)cc3)CC2)CN1c1ccc(C#N)c(Cl)c1 (some centres unmarked) [Cpd. No. 502]
2. C[C@H]1CC2(CCN(c3ccc(C(=O)N4CCC(CN5CCN(c6cc7c(cc6F)C(=O)N(C6CCC(=O)NC6=O)C7=O)CC5)CC4)nn3)CC2)CN1c1ccc(C#N)c(Cl)c1 (some centres unmarked) [Cpd. No. 490]
3. C[C@H]1CC2(CCN(c3ccc(C(=O)N4CCC(CN5CCN(c6ccc7c(c6)C(=O)N(C6CCC(=O)NC6=O)C7=O)CC5)CC4)nn3)CC2)CN1c1ccc(C#N)c(Cl)c1 (some centres unmarked) [Cpd. No. 489]

1: 9.5; 2: 7.1; 3: 7.5

I would be grateful if you could share the reported half-life for C[C@H]1CC2(CCN(c3cnc(C(=O)N4CCC(N5CCN(c6cc7c(cc6F)C(=O)N(C6CCC(=O)NC6=O)C7=O)CC5)CC4)cn3)CC2)CN1c1ccc(C#N)c(Cl)c1 (some centres unmarked) [Cpd. No. 498] .
2.3

====

# measurement notes: Mouse PK studies after oral and IV dosing
# Type: in vivo
# conditions used: in vivo, iv, 1 mg/kg, IV, dose 1 mg/kg, read-out: IV VSS
property name: Vd (L/kg)
Numbers only, in L/kg.

compound	unit abbrev	readout number
C[C@H]1CC2(CCN(c3ccc(C(=O)N4CCN(CC5CN(c6ccc7c(c6)C(=O)N(C6CCC(=O)NC6=O)C7=O)C5)CC4)c(F)c3)CC2)CN1c1ccc(C#N)c(Cl)c1 (stereo partly shown)	L/kg	2.2
C[C@H]1CC2(CCN(c3cnc(C(=O)N4CCC(N5CCN(c6cc7c(cc6F)C(=O)N(C6CCC(=O)NC6=O)C7=O)CC5)CC4)cn3)CC2)CN1c1ccc(C#N)c(Cl)c1 (stereo partly shown)	L/kg	3.22
C[C@H]1CC2(CCN(c3ccc(C(=O)N4CCC(N5CCN(c6cc7c(cc6F)C(=O)N(C6CCC(=O)NC6=O)C7=O)CC5)CC4)nn3)CC2)CN1c1ccc(C#N)c(Cl)c1 (stereo partly shown)	L/kg	1.53
C[C@H]1CC2(CCN(c3ccc(C(=O)N4CCC(N5CCN(c6ccc7c(c6)C(=O)N(C6CCC(=O)NC6=O)C7=O)CC5)CC4)cc3)CC2)CN1c1ccc(C#N)c(Cl)c1 (stereo partly shown)	L/kg	1.02

Each of the following entries comes with a recorded value; kindly state Vd for each.
1. C[C@H]1CC2(CCN(c3ccc(C(=O)N4CCN(CC5CN(c6ccc7c(c6)C(=O)N(C6CCC(=O)NC6=O)C7=O)C5)CC4)nn3)CC2)CN1c1ccc(C#N)c(Cl)c1 (stereo partly shown)
2. C[C@H]1CC2(CCN(c3cnc(C(=O)N4CCN(CC5CCN(c6ccc7c(c6)C(=O)N(C6CCC(=O)NC6=O)C7=O)CC5)CC4)cn3)CC2)CN1c1ccc(C#N)c(Cl)c1 (stereo partly shown)
3. C[C@H]1CC2(CCN(c3ccc(C(=O)N4CCN(C5CN(c6ccc7c(c6)C(=O)N(C6CCC(=O)NC6=O)C7=O)C5)CC4)cc3F)CC2)CN1c1ccc(C#N)c(Cl)c1 (stereo partly shown)
4. C[C@H]1CC2(CCN(c3ccc(C(=O)N4CCN(CC5CN(c6cc7c(cc6F)C(=O)N(C6CCC(=O)NC6=O)C7=O)C5)CC4)nn3)CC2)CN1c1ccc(C#N)c(Cl)c1 (stereo partly shown)
5. C[C@H]1CC2(CCN(c3ccc(C(=O)N4CCC(CN5CCN(c6cc7c(cc6F)C(=O)N(C6CCC(=O)NC6=O)C7=O)CC5)CC4)nn3)CC2)CN1c1ccc(C#N)c(Cl)c1 (stereo partly shown)
6. C[C@H]1CC2(CCN(c3ccc(C(=O)N4CCC(CN5Cc6cc7c(cc6C5)C(=O)N(C5CCC(=O)NC5=O)C7=O)CC4)nn3)CC2)CN1c1ccc(C#N)c(Cl)c1 (stereo partly shown)

1: 0.62; 2: 16.9; 3: 2.1; 4: 2.95; 5: 1.74; 6: 1.46
